Data provenance is PubChem BioAssay.

# ASSAY_EXPLANATION: OD615 S. cerevisiae growth inhibition, permissive medium, pilot counter-assay, permissive growth control for S. cerevisiae lifespan shortening project (AID 705)
# EXPERIMENTAL_CONDITIONS: OD615, 24 h, at 10 µM, stronger effect = higher value
PROPERTY_MEASURED: growth inhibition (%)
Report only the number, with the unit % understood.

Worked examples, 3 molecules total:
* COc1ccc(CC(=O)Nc2cc(C)c3c(=O)oc4ccccc4c3n2)cc1 | -2.25
* Oc1c(C(c2ccccc2)N2CCCCC2)sc2ncnn12 (stereo unspecified) | -0.17
* CCCCCn1c(SCCOCC)nc2c1c(=O)[nH]c(=O)n2C | -10.1

Data point: CCOC(=O)N1CCN(Cc2nc3c(c(=O)n(C)c(=O)n3C)n2CCC(C)C)CC1 ; growth inhibition = -5

Data point: CCOC(=O)N1CCC(NC(=O)C(CC(C)C)NC(=O)C2CCCCC2)CC1 (stereo unspecified) ; growth inhibition = -6.28

Data point: CC1CCN(c2nnc(N3CCC(C)CC3)c3ccccc23)CC1 ; growth inhibition = -19.1

====

# ASSAY_EXPLANATION: HUVEC growth inhibition – cell-based, human, primary screen (AID 575);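 also: 100% = median of untreated cell wells with 0.1% DMSO on each plate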
# EXPERIMENTAL_CONDITIONS: HUVEC proliferation, CellTiter-Glo luminescence, 72 h; at 10 µM; stronger effect = lower value
PROPERTY_MEASURED: viability (%)
Report only the number, with the unit % understood.

Worked examples, 2 compounds total:
* Nc1cc(-c2ccccc2)ccc1O | 86.3
* COc1ccc2cc([C@H](C)C(=O)O)ccc2c1 | 111

Attention now shifts to the item below.
Data point: CC(=O)C1=C(O)C(=O)N(Cc2cccnc2)C1c1ccccc1 (stereo not drawn) ; viability = 97.8

====

Reported viability values for a set of compounds
# ASSAY_EXPLANATION: growth inhibitors of H69AR lung tumor, primary screen, human, duplicate replicates (AID 580);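 also: 100% = mean luminescence of untreated wells and 0% = no signal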
# EXPERIMENTAL_CONDITIONS: H69AR lung tumor cells viability, ATP luminescence, 72 h; at 10 µM; stronger effect = lower value
Report only the number, with the unit % understood.

- COc1ccc(-c2nnc(SCC(=O)NC(=O)NCc3ccco3)o2)cc1: 86.8
- CCN(CC)CC(C)CNC(=O)CC(C(=O)N1CCc2ccccc21)n1ccnc1 (stereo unspecified): 95.9
- Cc1nnc2n(-c3ccccc3)c(=O)c3c4c(sc3n12)CCCC4: 85.6
- O=C(Nc1ccc2oc(-c3ccncc3)nc2c1)c1cccs1: 79.6
- COc1ccc(-c2cc3nc4n(c(=O)c3s2)CCC4)cc1: 84.1
- COc1ccc(N2CCN(C(c3cccs3)C(C)NC(=O)c3ccco3)CC2)cc1 (stereo unspecified): 86.3
- CC(C)CCNC(=O)[C@H](CC(C)C)NC(=O)[C@H]1O[C@@H]1C(=O)O: 100
- CCCC1CC(C)(C(=O)Cn2[nH]c(=O)ccc2=O)OC1=O (stereo unspecified): 91.8

Data point: O=C(CCN1CCN(C(=O)c2ccco2)CC1)Nc1ccc(F)cc1 ; viability = 97

Data point: CC(=O)N1CCN=C1SCc1ccc(Br)cc1 ; viability = 87

Data point: Cc1nc(Nc2nc(=O)c3ccccc3n2C)nc2c(C)cccc12 ; viability = 86.1

Data point: Cc1cc(NC(=O)C23CCC(C)(c4nc5cc(Cl)c(Cl)cc5nc42)C3(C)C)no1 (stereo unspecified) ; viability = 91.6

Data point: Cc1cccc2cc(CN(CCN3CCCC3)C(=O)NC3CCCCC3)c(=O)[nH]c12 ; viability = 91

Data point: COc1ccc(NC(=O)CN2CCN(S(=O)(=O)c3ccc(Cl)cc3)CC2)cc1 ; viability = 81.8

Data point: Cc1ncc([N+](=O)[O-])n1CCO ; viability = 105

Data point: C[C@H]1C[C@@H]2[C@H]([C@@H](O)C[C@@]3(C)[C@H]2CC[C@]3(O)C(=O)CO)[C@@]2(C)C=CC(=O)C=C12 ; viability = 88.1

Data point: CC(=O)N1CCC2(CC1)CC(=O)c1cc(OCC(=O)NCc3ccc(C)cc3)ccc1O2 ; viability = 90

Data point: C[C@]12C=CC(=O)C=C1CC[C@H]1[C@@H]3C[C@@H](O)[C@](O)(C(=O)CO)[C@@]3(C)C[C@H](O)[C@@]12F ; viability = 106

Data point: CC(C(=O)N1CCCCC1)n1sc2ccccc2c1=O (stereo unspecified) ; viability = 87.4

Data point: CCOC(=O)c1c(C)oc2ccc(OCC(N)=O)cc12 ; viability = 97.1

Data point: CCCC1(C(=O)OCC)NC(c2ccc(N(C)C)cc2)C2C(=O)N(c3ccc(F)cc3)C(=O)C21 (stereo unspecified) ; viability = 112
